Measured Percent Effect values are reported for all entries that follow.
Target: Protein translocase subunit SecA (Escherichia coli (strain K12)) (UniProt P10408)
Sequence (P10408 whole entry): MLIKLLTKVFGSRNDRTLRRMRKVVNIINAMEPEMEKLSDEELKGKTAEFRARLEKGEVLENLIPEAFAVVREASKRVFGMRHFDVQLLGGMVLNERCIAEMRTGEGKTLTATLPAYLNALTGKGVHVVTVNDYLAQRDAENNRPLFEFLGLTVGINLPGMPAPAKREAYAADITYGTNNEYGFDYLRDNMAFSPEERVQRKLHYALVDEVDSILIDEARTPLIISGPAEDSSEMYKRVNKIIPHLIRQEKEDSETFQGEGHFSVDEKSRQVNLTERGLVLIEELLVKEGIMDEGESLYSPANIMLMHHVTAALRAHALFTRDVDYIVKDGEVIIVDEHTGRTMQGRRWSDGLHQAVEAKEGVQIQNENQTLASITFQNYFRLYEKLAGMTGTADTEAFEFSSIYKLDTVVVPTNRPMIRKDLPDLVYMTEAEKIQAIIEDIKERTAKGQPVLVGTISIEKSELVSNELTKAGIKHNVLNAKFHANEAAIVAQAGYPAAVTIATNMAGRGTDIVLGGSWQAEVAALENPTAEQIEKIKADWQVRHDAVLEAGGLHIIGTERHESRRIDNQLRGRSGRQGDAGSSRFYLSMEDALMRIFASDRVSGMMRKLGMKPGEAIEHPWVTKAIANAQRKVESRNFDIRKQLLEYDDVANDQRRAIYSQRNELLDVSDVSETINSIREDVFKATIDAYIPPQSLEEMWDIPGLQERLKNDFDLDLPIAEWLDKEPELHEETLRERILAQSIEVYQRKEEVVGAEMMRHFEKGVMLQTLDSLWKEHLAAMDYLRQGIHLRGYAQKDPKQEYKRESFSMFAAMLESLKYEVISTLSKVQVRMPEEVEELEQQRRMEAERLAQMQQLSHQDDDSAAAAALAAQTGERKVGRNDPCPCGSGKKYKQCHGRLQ
Assay: Assay to Identify E. coli SecA ATPase Inhibitors
Type: functional
Design: scale not given: direction of the effect not stated beside the values
Details: 30 µM
Measured potencies and affinities stand elsewhere.

{"molecule": "Cc1cc2nc(SCC(=O)N3CCOCC3)n(CC(C)C)c(=O)c2[nH]1", "Percent Effect [%]": 2.16}
{"molecule": "Cn1cc2c(n1)C(CNC(=O)Cc1ccsc1)OCC2 (stereo unspecified)", "Percent Effect [%]": -4.65}
{"molecule": "CCn1cc(NC(=O)C2CCN(CC(=O)N3CCOCC3)CC2)cn1", "Percent Effect [%]": -3.94}
{"molecule": "Cc1ccccc1Cc1cnc(NC(=O)C2CNC(=O)N2)s1 (stereo unspecified)", "Percent Effect [%]": -3.2}
{"molecule": "O=C(NCc1nnc2n1CCCC2)N1CCc2ccccc2C1", "Percent Effect [%]": -3.86}
{"molecule": "O=S(=O)(Nc1cnn(C2CCOCC2)c1)c1c(F)cccc1F", "Percent Effect [%]": 1.19}
{"molecule": "CSCC[C@H](N)C(=O)NCc1cc2n(n1)CCCN(C(=O)C1CCC1)C2", "Percent Effect [%]": -0.458}
{"molecule": "O=C(NC(CO)CO)c1coc(COc2cccc(F)c2)n1", "Percent Effect [%]": -2.81}
{"molecule": "c1ccc(C[C@H]2[C@H](N3CCOCC3)CCN2Cc2cccnc2)cc1", "Percent Effect [%]": -1.09}
{"molecule": "O=C1NCC2(CCCN(CCc3ccccc3)C2)Oc2ccccc21 (stereo unspecified)", "Percent Effect [%]": -3.06}
{"molecule": "Cc1ccc(NC2CCN(C(=O)CCc3ccco3)CC2)nn1", "Percent Effect [%]": -5.56}

====

Molecular target: Arginase-2, mitochondrial (Homo sapiens)
Experiment: in vitro enzyme assay to detect the production of urea directly proportional to the activity of Arginase II; further: in the data most compounds retested in dose-response had high values
Assay type: functional
Set-up: scale not given: direction of the effect not stated beside the values
Conditions: 33.3 µM
Each item that follows carries a reported Percent Effect.

{"compound": "OCCN1CCN(Cc2coc(-c3ccc(Cl)cc3)n2)CC1", "experimental target": "Arginase-2, mitochondrial (Homo sapiens)", "Percent Effect [%]": 4.27}
{"compound": "CC(C)(C)c1nc(CN2CCCC(Cn3cncn3)C2)cs1 (stereo unspecified)", "experimental target": "Arginase-2, mitochondrial (Homo sapiens)", "Percent Effect [%]": -17.6}
{"compound": "Cc1nc(CN(C)C2CCCN(c3cccnn3)C2)no1 (stereo unspecified)", "experimental target": "Arginase-2, mitochondrial (Homo sapiens)", "Percent Effect [%]": 5.34}
{"compound": "O=C([C@H]1C[C@H]2OCC[C@H]2N(C(=O)C2CCOCC2)C1)N1CCCCO1", "experimental target": "Arginase-2, mitochondrial (Homo sapiens)", "Percent Effect [%]": -50.4}
{"compound": "CN(C)C(=O)c1ccc2c(c1)N(C)C(CC(=O)NCCC(C)(C)C)CO2 (stereo unspecified)", "experimental target": "Arginase-2, mitochondrial (Homo sapiens)", "Percent Effect [%]": 22.1}
{"compound": "Cc1cccc(CNC(CN2CCN(C)CC2)c2ccccc2)c1 (stereo unspecified)", "experimental target": "Arginase-2, mitochondrial (Homo sapiens)", "Percent Effect [%]": 29.5}

====

Target: Chromo domain-containing protein 1 (Saccharomyces cerevisiae (strain ATCC 204508 / S288c) (Baker's yeast)) (UniProt P32657)
Sequence (P32657 whole entry, the tested form may be a part): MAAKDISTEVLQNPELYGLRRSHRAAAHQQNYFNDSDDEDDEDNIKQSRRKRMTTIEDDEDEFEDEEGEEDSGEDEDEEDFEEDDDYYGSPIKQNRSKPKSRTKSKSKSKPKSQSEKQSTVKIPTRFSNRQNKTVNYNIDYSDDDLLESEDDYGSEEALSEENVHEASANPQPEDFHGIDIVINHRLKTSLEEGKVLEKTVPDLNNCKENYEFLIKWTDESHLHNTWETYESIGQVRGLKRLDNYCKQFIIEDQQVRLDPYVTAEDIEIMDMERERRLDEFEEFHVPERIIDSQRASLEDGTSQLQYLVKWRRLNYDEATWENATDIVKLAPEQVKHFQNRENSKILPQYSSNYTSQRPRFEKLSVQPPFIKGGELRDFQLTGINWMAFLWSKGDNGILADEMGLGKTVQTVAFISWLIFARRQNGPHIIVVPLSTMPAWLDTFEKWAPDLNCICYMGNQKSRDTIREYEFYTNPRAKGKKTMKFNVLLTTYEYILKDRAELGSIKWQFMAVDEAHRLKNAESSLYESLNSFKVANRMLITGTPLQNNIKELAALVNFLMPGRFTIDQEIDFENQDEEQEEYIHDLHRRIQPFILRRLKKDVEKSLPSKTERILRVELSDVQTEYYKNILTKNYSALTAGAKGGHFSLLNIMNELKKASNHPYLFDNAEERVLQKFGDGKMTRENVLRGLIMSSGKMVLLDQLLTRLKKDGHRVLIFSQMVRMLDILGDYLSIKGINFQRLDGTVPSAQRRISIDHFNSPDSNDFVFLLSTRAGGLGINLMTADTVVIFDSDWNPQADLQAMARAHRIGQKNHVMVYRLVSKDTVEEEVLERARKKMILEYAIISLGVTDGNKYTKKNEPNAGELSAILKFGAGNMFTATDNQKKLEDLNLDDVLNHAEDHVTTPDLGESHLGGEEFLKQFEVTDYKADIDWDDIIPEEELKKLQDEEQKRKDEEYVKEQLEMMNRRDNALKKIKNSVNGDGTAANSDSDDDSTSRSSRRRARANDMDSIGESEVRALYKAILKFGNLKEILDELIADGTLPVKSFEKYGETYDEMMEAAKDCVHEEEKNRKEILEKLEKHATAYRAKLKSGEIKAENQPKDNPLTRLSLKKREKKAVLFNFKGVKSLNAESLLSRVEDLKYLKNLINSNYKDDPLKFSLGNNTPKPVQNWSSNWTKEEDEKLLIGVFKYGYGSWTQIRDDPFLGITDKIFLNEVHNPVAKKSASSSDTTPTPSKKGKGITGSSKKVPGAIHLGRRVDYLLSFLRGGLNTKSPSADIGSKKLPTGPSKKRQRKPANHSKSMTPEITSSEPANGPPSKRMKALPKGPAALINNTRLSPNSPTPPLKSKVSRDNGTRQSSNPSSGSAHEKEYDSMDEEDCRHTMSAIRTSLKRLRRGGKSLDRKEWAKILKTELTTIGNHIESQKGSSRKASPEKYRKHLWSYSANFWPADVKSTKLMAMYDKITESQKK
Assay: ScCHD-1 Enzyme Inhibition Assay; further: in the data most compounds retested in dose-response had high values
Type: functional
Set-up: scale not given: direction of the effect not stated beside the values
Conditions: 30 µM
The entries below come with measured Percent Effect values attached.

{"molecule": "Cc1ccc(CC(=O)N2CCOC(c3nc(C)n[nH]3)C2)cn1 (configuration not stated)", "Percent Effect [%]": -3.82}
{"molecule": "COCCC(=O)Nc1ccnc(Oc2ccccc2)c1", "Percent Effect [%]": -6.2}
{"molecule": "O=C(CCNC(=O)c1ccccc1)Nc1ccncc1", "Percent Effect [%]": -2.65}
{"molecule": "Cc1cccc(CNC(CN2CCN(C)CC2)c2ccccc2)c1 (configuration not stated)", "Percent Effect [%]": -5.02}
{"molecule": "Cc1nc2ccccc2nc1CN(C)CC1CCCN1c1cccnn1 (configuration not stated)", "Percent Effect [%]": -19.8}
{"molecule": "CC(C)(C)c1ncc(C(=O)NCCS(N)(=O)=O)s1", "Percent Effect [%]": 2.8}
{"molecule": "O=C(CCNC(=O)C1CCCC1)NCc1cccnc1-n1cncn1", "Percent Effect [%]": -0.359}
{"molecule": "NC(=O)C1CN(C(=O)Nc2ccccc2N2CCCCCC2)CCO1 (configuration not stated)", "Percent Effect [%]": -1.09}
{"molecule": "CN1CCCc2cc(NC(=O)N3CCOC(C(N)=O)C3)ccc21 (configuration not stated)", "Percent Effect [%]": -3.37}
{"molecule": "CC1CCCN(Cc2c(C3CCOCC3)[nH]c3ncccc23)C1 (configuration not stated)", "Percent Effect [%]": -12}
{"molecule": "Cc1cnn(CC2CCCN2Cc2cc(=O)n3ccccc3n2)c1 (configuration not stated)", "Percent Effect [%]": -4.06}
{"molecule": "CCn1ccnc1CN1CCN(Cc2ccccn2)CC1C (configuration not stated)", "Percent Effect [%]": 14}

====

Target: Chromo domain-containing protein 1 (Saccharomyces cerevisiae (strain ATCC 204508 / S288c) (Baker's yeast)) (UniProt P32657)
Test: ScCHD-1 Enzyme Inhibition Assay; further: in the data most compounds retested in dose-response had high values
Assay type: functional
Parameters: scale not given: direction of the effect not stated beside the values
Conditions: 30 µM
This section presents molecules with their documented Percent Effect values.
readout kind: Percent Effect (%)

{"molecule": "Cc1cnn(CC(C)NCc2ccc(OCc3ccncc3)cc2)c1 (stereo unspecified)", "readout kind": "Percent Effect", "measured": -25.8}
{"molecule": "COC(=O)CCc1c(C)nn(-c2nc(C)cc(=O)[nH]2)c1C", "readout kind": "Percent Effect", "measured": -5.54}
{"molecule": "Cc1nc(C2CCCN(C(=O)c3ccc(Cn4cccn4)o3)C2)no1 (stereo unspecified)", "readout kind": "Percent Effect", "measured": 0.66}
{"molecule": "CCc1nc(CN(C)CC(c2cccs2)N2CCOCC2)no1 (stereo unspecified)", "readout kind": "Percent Effect", "measured": -7.57}
{"molecule": "O=C(NCc1ccc(-n2cncn2)nc1)c1ccoc1", "readout kind": "Percent Effect", "measured": -15.1}
{"molecule": "CCn1cnnc1CNC(=O)N1CCN(Cc2ccccc2)CC1", "readout kind": "Percent Effect", "measured": -22.4}

====

Recorded Percent Effect for the following compounds
Molecular target: Arginase-2, mitochondrial (Homo sapiens) (UniProt P78540)
Sequence (P78540 whole entry): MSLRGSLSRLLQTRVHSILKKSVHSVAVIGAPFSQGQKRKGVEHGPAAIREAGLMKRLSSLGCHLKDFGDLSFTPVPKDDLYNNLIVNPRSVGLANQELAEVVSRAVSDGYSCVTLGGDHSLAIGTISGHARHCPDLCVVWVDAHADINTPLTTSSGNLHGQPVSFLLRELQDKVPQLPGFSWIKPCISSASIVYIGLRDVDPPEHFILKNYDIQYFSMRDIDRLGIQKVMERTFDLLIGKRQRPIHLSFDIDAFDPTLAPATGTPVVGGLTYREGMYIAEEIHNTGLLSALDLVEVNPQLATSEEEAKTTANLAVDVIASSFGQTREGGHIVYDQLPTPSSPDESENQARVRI
Test: in vitro enzyme assay to detect the production of urea directly proportional to the activity of Arginase II; further: in the data most compounds retested in dose-response had high values
Type: functional
Set-up: scale not given: direction of the effect not stated beside the values
Conditions: 33.3 µM

{"compound": "Cn1ccnc1CN1CCC2(CC(=O)N(c3cccc(F)c3)C2)C1 (stereo not given)", "experimental target": "Arginase-2, mitochondrial (Homo sapiens) (UniProt P78540)", "Percent Effect / %": 7.1}
{"compound": "c1ccc(OCCCNCCn2cccn2)cc1", "experimental target": "Arginase-2, mitochondrial (Homo sapiens) (UniProt P78540)", "Percent Effect / %": -2.8}
{"compound": "O=C(NCc1cccc2cccnc12)N1CCC(n2cncn2)CC1", "experimental target": "Arginase-2, mitochondrial (Homo sapiens) (UniProt P78540)", "Percent Effect / %": 2.37}
{"compound": "c1ccc(-n2cc(CN3CCCC(Cn4cncn4)C3)nn2)cc1 (stereo not given)", "experimental target": "Arginase-2, mitochondrial (Homo sapiens) (UniProt P78540)", "Percent Effect / %": -0.215}
{"compound": "O=C(CC1CCCC1)NCCn1ccc(-c2ccncc2)n1", "experimental target": "Arginase-2, mitochondrial (Homo sapiens) (UniProt P78540)", "Percent Effect / %": 3.23}
{"compound": "Cc1nc2ccccc2nc1CN(C)CC1CCCN1c1cccnn1 (stereo not given)", "experimental target": "Arginase-2, mitochondrial (Homo sapiens) (UniProt P78540)", "Percent Effect / %": 1.47}
{"compound": "CC(OCC(F)(F)F)C(=O)Nc1ccc(-n2cncn2)nc1 (stereo not given)", "experimental target": "Arginase-2, mitochondrial (Homo sapiens) (UniProt P78540)", "Percent Effect / %": 1.05}
{"compound": "c1nc(N2CCCCC2Cn2cncn2)c2ccsc2n1 (stereo not given)", "experimental target": "Arginase-2, mitochondrial (Homo sapiens) (UniProt P78540)", "Percent Effect / %": 25.5}
{"compound": "CN1CCN(Cc2cccnc2)C2(CCN(c3ncc(F)cn3)C2)C1=O (stereo not given)", "experimental target": "Arginase-2, mitochondrial (Homo sapiens) (UniProt P78540)", "Percent Effect / %": -13.8}
{"compound": "Nc1cc(N2CCCC2c2cnccn2)ncn1 (stereo not given)", "experimental target": "Arginase-2, mitochondrial (Homo sapiens) (UniProt P78540)", "Percent Effect / %": -5.34}
{"compound": "Cn1cc(CN2CC3(CCN(C(=O)c4cscn4)C3)C2)cn1", "experimental target": "Arginase-2, mitochondrial (Homo sapiens) (UniProt P78540)", "Percent Effect / %": -3.19}
{"compound": "Cc1cnn(CC2CCCCN2Cc2nc(-c3ccoc3)no2)c1 (stereo not given)", "experimental target": "Arginase-2, mitochondrial (Homo sapiens) (UniProt P78540)", "Percent Effect / %": -5.61}
{"compound": "Cn1c(CC2CCS(=O)(=O)C2)nnc1SCCOc1cccc(Cl)c1 (stereo not given)", "experimental target": "Arginase-2, mitochondrial (Homo sapiens) (UniProt P78540)", "Percent Effect / %": 3.23}
{"compound": "CCO[C@@H]1CCN(C(=O)c2ccc[nH]2)[C@@H]1Cc1cnn(C)c1", "experimental target": "Arginase-2, mitochondrial (Homo sapiens) (UniProt P78540)", "Percent Effect / %": 3.5}
{"compound": "CC1CCCN(CC(=O)N2CCC(c3ncc4c(n3)CCNC4)CC2)C1 (stereo not given)", "experimental target": "Arginase-2, mitochondrial (Homo sapiens) (UniProt P78540)", "Percent Effect / %": -0.699}
{"compound": "Cc1nn(C)c(C)c1C(=O)N1CCOCC1CC(=O)c1ccco1 (stereo not given)", "experimental target": "Arginase-2, mitochondrial (Homo sapiens) (UniProt P78540)", "Percent Effect / %": -8.28}
{"compound": "COc1cccc(COCC(=O)N2CCCC(n3ccnc3)C2)c1 (stereo not given)", "experimental target": "Arginase-2, mitochondrial (Homo sapiens) (UniProt P78540)", "Percent Effect / %": 0.802}
{"compound": "COc1ccnc(N2CCN(C(=O)CN3CCCC3=O)CC2)n1", "experimental target": "Arginase-2, mitochondrial (Homo sapiens) (UniProt P78540)", "Percent Effect / %": 2.88}
{"compound": "CC(C)(C)c1nc(CN2CCCC2CCc2ccccc2)no1 (stereo not given)", "experimental target": "Arginase-2, mitochondrial (Homo sapiens) (UniProt P78540)", "Percent Effect / %": -0.712}
{"compound": "COc1nccc(N2CCN(Cc3ccc(C)cc3)C(=O)C2)c1C#N", "experimental target": "Arginase-2, mitochondrial (Homo sapiens) (UniProt P78540)", "Percent Effect / %": -33.1}
{"compound": "COc1cc(C)ccc1OCCC(=O)N1CCCC1Cn1cccn1 (stereo not given)", "experimental target": "Arginase-2, mitochondrial (Homo sapiens) (UniProt P78540)", "Percent Effect / %": -1.44}
{"compound": "Cn1ncc2c(=O)[nH]c(CN(Cc3cccc(F)c3)C3CC3)nc21", "experimental target": "Arginase-2, mitochondrial (Homo sapiens) (UniProt P78540)", "Percent Effect / %": 3.92}
{"compound": "CCc1nnc2n1CCN(C(=O)c1ccc(-c3ccco3)nc1C)C2", "experimental target": "Arginase-2, mitochondrial (Homo sapiens) (UniProt P78540)", "Percent Effect / %": -2.28}
{"compound": "c1cnc2c(c1)cc([C@H]1CCCO1)n2CCN1CCCCC1", "experimental target": "Arginase-2, mitochondrial (Homo sapiens) (UniProt P78540)", "Percent Effect / %": -0.232}
{"compound": "O=C(CCNC(=O)C1CCCC1)NCc1cccnc1-n1cncn1", "experimental target": "Arginase-2, mitochondrial (Homo sapiens) (UniProt P78540)", "Percent Effect / %": -2.88}
